I'd be grateful if you could share measured IC50 for these entries.
Target: Orai1/STIM1 (Homo sapiens)
Construct: expressed in transfected cells; host or cells: HEK-293
Sequence (Q96D31 whole entry): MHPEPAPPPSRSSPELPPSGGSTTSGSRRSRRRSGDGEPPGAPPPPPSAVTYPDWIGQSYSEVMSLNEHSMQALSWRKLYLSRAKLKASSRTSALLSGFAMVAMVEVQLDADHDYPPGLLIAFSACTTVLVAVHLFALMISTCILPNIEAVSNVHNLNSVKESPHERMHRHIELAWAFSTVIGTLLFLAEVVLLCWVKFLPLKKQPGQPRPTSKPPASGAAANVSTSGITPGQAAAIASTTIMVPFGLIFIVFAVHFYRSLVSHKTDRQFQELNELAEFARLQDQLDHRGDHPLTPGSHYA
Experiment: Fluorescence-based assay of store-operated calcium entry in Orai1/STIM1 stable cells
Type: cell-based
Details: Table IV; HEK-293 cells stably expressing human STIM1 and Orai1; Peak-Basal signal; read-out: Orail/STIM1 (IC50, μmol)

Incoming: Requested field: IC50. Item: `Cn1nc(-c2ccccn2)cc1-c1ccc(NC(=O)c2c(F)cccc2F)s1`
Outgoing: < 600 nM

Incoming: Requested field: IC50. Item: `Cn1nc(-c2nccs2)cc1-c1ccc(NC(=O)c2c(F)cc(F)cc2F)s1`
Outgoing: < 600 nM

Incoming: Requested field: IC50. Item: `CCn1nc(-c2nccs2)cc1-c1ccc(NC(=O)c2c(F)cccc2F)s1`
Outgoing: 600 to 1200 nM

Incoming: Requested field: IC50. Item: `Cn1nc(-c2ccccc2F)cc1-c1ccc(NC(=O)c2c(F)ccc(F)c2F)s1`
Outgoing: 600 to 1200 nM

Incoming: Requested field: IC50. Item: `Cn1nc(-c2ccccc2F)cc1-c1ccc(NC(=O)c2c(F)cccc2F)s1`
Outgoing: < 600 nM

Incoming: Requested field: IC50. Item: `CCn1nc(-c2nccs2)cc1-c1ccc(NC(=O)c2c(F)cc(F)cc2F)s1`
Outgoing: 600 to 1200 nM

Incoming: Requested field: IC50. Item: `Cn1nc(-c2nccs2)cc1-c1ccc(NC(=O)c2ccc(F)cc2F)s1`
Outgoing: < 600 nM

Incoming: Requested field: IC50. Item: `Cn1nc(-c2nccs2)cc1-c1ccc(NC(=O)c2c(F)cccc2F)s1`
Outgoing: < 600 nM

Incoming: Requested field: IC50. Item: `Cn1nc(-c2ccccn2)cc1-c1ccc(NC(=O)c2c(F)cc(F)cc2F)s1`
Outgoing: 600 to 1200 nM

Incoming: Requested field: IC50. Item: `Cn1nc(-c2ccccc2F)cc1-c1ccc(NC(=O)c2c(F)cc(F)cc2F)s1`
Outgoing: < 600 nM
